// OD492 lookup, one value per entry
Biological target: T1, HCV Core1-169 (HCV-1, UniProt P26664 1-169)
T1 construct: also called Solid Phase HCV Core
T1 sequence: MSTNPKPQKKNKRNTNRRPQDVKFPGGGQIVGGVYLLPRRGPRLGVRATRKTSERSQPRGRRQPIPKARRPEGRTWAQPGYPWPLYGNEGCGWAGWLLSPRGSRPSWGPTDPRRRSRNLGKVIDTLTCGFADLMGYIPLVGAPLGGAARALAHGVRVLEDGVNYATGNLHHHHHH
Experiment: sandwich EIA, capture C11-7
Write it as a number; the unit OD goes unstated.

binder	val
HCV 208A-293 (antibody, V domains shown) VH: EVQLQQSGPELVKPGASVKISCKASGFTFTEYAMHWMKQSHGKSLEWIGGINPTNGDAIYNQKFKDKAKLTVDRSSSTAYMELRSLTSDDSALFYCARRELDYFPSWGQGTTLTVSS VL: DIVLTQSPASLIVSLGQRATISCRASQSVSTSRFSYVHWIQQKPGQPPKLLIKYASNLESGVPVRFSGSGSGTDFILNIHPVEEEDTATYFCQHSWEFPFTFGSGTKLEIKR	2.87
HCV 208A-207 (antibody, V domains shown) VH: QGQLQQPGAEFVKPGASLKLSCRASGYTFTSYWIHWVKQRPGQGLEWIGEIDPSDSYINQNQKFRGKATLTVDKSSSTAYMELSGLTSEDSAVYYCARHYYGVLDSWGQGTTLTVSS VL: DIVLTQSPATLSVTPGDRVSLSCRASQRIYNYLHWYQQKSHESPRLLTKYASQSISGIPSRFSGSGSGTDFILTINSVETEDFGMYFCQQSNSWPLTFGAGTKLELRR	2.47

Task: Report OD492 for HCV 208B-612 (antibody, V domains shown) VH: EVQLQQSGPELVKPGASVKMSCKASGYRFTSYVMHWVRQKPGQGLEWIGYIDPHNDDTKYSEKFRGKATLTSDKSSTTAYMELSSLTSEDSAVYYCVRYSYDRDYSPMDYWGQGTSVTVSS VL: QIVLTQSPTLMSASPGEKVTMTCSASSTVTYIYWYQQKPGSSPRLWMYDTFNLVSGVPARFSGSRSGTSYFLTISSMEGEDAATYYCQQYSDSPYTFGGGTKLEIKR please.
Output: 1.52
